Assay: Acute toxicity (LD50) in male mice
Conditions: mouse, in vivo, ip, intraperitoneal
Description: Untersuchung der akuten Toxizität an männlichen Mäusen Es wurden folgende Standard-Grenzwerte LDSO (mg/kg) ermittelt: Toxizitätsuntersuchung an männlichen Mäusen
measured-endpoint: LD50 (mg/kg)

In [3]: df
Out[3]:
                           molecular_string  value_observed
0  CCN(CC)CCn1c(=O)c(Cc2ccc(OC)cc2)nc2ccccc21             138

###

Assay: Acute toxicity (LD50) in male mice
Conditions: mouse, in vivo, oral
measured-endpoint: LD50

>>> df
                           molecular_string  value_observed
0  CCN(CC)CCn1c(=O)c(Cc2ccc(OC)cc2)nc2ccccc21       800 mg/kg
